Reported normalized growth is given for each of the following compounds.
PROTOCOL_DETAILS: chemical genetic growth profiling, strain panel (AID 1159580);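 note: tested at 20 µM; growth read once vehicle control cultures reached saturation at 30 °C; 1 = growth at the plate median or of vehicle wells; lower values mean less growth of the strain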
ASSAY_CONTEXT: S. cerevisiae deletion strains, growth OD, locus YBR231C, strain swc5, stronger effect = lower value
The whole screen tested about 5,500 compounds, of which about 2,000 (36%) were called active. About 18% were inconclusive and are not listed. This is one part of the list.

| COMPOUND | normalized growth |
| --- | --- |
| C[C@]12CCC(=O)C=C1C=CC1C2CC[C@@]2(C)C1CC[C@@]21CCC(=O)O1 (stereo not given in full) | 0.989 |
| COC(=O)C[C@H]1C2(C)CC34OC5(C)O[C@@]6([C@H](OC)C(OC(=O)C(C)C)[C@]7(C)C(/C(=C(/OC)C(C)C)C(=O)O[C@H]7c7ccoc7)[C@@]6(O5)[C@H](OC)[C@@]3(OC)C2OC(C)=O)[C@]14C (stereo not given in full) | 0.979 |
| CO/N=C1/CN(c2nc3c(cc2F)c(=O)c(C(=O)O)cn3C2CC2)CC1CN (stereo not given) | 0.998 |
| CCC(C)C(=O)O[C@@H]1C[C@@]2(C)[C@H](c3ccoc3)OC(=O)CC23OC2(C)O[C@]14[C@]1(C)[C@@H](CC(=O)OC)C5(C)CC1(O)[C@](O)(C5OC(=O)C1(C)OC1C)[C@@H](OC(C)=O)[C@]34O2 (stereo not given in full) | 0.995 |
| CNCCC(Oc1ccc(C(F)(F)F)cc1)c1ccccc1 (stereo not given) | 0.986 |
| COC(=O)C[C@H]1C2(C)CC34OC5(C)O[C@@]6([C@H](OC(C)=O)C(OC(C)=O)[C@]7(C)C(/C(=C(/O)C(C)C)C(=O)O[C@H]7c7ccoc7)[C@@]6(O5)[C@H](OC(C)=O)[C@@]3(O)C2OC(=O)C(C)C)[C@]14C (stereo not given in full) | 1 |
| CCn1cc(C(=O)O)c(=O)c2cc(F)c(N3CCNC(C)C3)c(F)c21 (stereo not given) | 0.997 |
| COc1cc2nc(N(C)CCCNC(=O)C3CCCO3)nc(N)c2cc1OC (stereo not given) | 0.998 |
| CCC(C)C(=O)O[C@@H]1C[C@@]2(C)[C@H](c3ccoc3)OC(=O)CC23OC2(C)OC34[C@H](OC(=O)C(C)C)[C@@]3(O)[C@@H](OC(=O)C5(C)OC5C)[C@@]5(C)C[C@]3(O)[C@@](C)([C@H]5CC(=O)OC)C14O2 (stereo not given in full) | 0.996 |
| CC(=O)S[C@@H]1CC2=CC(=O)CC[C@]2(C)[C@H]2CC[C@@]3(C)[C@@H](CC[C@@]34CCC(=O)O4)C12 (stereo not given in full) | 1.04 |
